Target: T1, Recombinant human B7-H3 (human, UniProt Q5ZPR3 29-466, limits assumed)
T1 construct: also called CD276; B7RP-2
T1 sequence: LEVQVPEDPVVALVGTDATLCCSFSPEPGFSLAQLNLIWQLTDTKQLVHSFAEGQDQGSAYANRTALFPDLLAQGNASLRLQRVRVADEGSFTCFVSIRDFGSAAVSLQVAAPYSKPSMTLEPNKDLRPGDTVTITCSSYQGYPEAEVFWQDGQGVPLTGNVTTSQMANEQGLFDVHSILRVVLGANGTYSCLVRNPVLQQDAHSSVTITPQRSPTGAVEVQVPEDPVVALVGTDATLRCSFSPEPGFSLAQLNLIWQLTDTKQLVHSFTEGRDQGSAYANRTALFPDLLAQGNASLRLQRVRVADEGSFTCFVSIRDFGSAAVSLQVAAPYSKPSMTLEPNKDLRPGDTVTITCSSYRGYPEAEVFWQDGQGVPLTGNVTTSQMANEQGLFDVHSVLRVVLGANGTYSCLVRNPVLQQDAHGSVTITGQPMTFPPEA
Assay: SPR (such as Biacore T200), against human B7-H3
MEASURED_PROPERTY: Kd

Given the entry SCT-Da148 (antibody, V domains shown) VH: EVQLQQSGAELVKPGASVKLSCTASGVNIKDTYIHWVKQRPEQGLEWIGRIDPANGNRKYDPKFQGKATITADSSSNTAYLQLSSLTSEDTAVYYCARDGYYAPGYWGQGTTLTVSS VL: DIVMTQSQKFMSTSVGDRVSVTCKASQNVGTDVAWYQQKPGQSPKLLIYSASYRFSGVPDRFTGSGSGTDFSLAISNVQSEDLAEYFCQQYNSYPYTFGGGAKLEIK , report its measured Kd.
6.41 nM
